# target-or-test-system: JNK1 (Homo sapiens)
# Sequence (P45983 whole entry): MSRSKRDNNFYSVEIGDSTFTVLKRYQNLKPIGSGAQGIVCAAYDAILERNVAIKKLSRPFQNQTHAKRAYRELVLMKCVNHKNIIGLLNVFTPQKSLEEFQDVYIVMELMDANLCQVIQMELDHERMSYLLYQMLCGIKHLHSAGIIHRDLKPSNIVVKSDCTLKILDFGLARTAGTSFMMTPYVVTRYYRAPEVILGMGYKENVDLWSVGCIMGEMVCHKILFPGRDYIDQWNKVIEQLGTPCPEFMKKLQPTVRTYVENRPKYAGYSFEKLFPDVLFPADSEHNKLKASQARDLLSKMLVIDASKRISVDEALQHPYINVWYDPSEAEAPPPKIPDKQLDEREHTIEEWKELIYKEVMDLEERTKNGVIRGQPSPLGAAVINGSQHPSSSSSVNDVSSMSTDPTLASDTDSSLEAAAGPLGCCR
readout-type: IC50 (mM)
Hi! Could you send only the number? It should be in mM, unit omitted.

Query :: Given O=C1c2c(O)cccc2C([C@@H]2O[C@H](CO)[C@@H](O)[C@H](O)[C@H]2O)c2cc(CO)cc(O)c21 (stereo partly shown) , report its IC50 on JNK1 (Homo sapiens).
Result :: 3.92
